Sourced from PubChem BioAssay

target: Fibroblast growth factor 2 (Homo sapiens) (UniProt P09038); assay: basic fibroblast growth factor binding to printed compounds – biochemical, small-molecule microarray, 635/667 nm fluorescence, primary screen (AID 1133); conditions: FGF2, fluorescence 635/667, higher = more signal
Sequence (P09038 whole entry, looked up): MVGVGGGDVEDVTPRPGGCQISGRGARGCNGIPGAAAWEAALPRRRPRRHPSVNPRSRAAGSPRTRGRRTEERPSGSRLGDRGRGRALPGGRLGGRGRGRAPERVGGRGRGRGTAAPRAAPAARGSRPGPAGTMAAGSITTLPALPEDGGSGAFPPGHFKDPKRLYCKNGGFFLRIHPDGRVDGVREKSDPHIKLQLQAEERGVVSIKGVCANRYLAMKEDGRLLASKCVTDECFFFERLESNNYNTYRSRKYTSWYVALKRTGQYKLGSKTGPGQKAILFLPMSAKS
Label rule met for high-side composite z-score (at or above 0.5) and rule not met for low-side composite z-score (below it).

| molecule | cat |
| --- | --- |
| OCCCC1=CC(C2CC2)N(Cc2cccc(OC(F)(F)F)c2)CC1 (stereo not drawn) | rule not met |
| C=CC[C@@]1(C(=O)N2CCCCC2)N=C(c2ccc(OCCCO)cc2)O[C@@H]1c1ccccc1N=[N+]=[N-] | rule not met |
| COC(=O)c1c(CC[C@@H](CO)NC(=O)N[C@H](Cc2ccccc2)Cn2cc(-c3ccccn3)nn2)oc(C(C)=O)c1C(=O)OC | rule not met |
| O=C1C2C=CC(C(O)c3c(F)cccc3Cl)N(Nc3ccccc3F)C2C(=O)N1c1ccccc1 (stereo not drawn) | rule met |
| C=C(CCCC)/C(=C/C[C@@H](OC(C)=O)c1cccc(OCCO)c1)c1cnc2ccccc2c1 | rule met |
| O=C(O)C1N=C(c2ccc(OCCCO)cc2)N(c2ccccc2)O1 (stereo not drawn) | rule met |
| COC(=O)[C@]1(Cc2ccccc2)N=C(c2ccc(OCCCO)cc2)O[C@@H]1c1ccccc1N=[N+]=[N-] | rule met |
| CO[C@H]1O[C@H](CO)[C@@H](OC(=O)Nc2ccccc2-c2ccccc2)[C@H](OC(=O)Nc2ccccc2-c2ccccc2)[C@@H]1OC(=O)Nc1ccccc1-c1ccccc1 | rule met |

* * *

assay: probe aInhba binding on compound microarray – biochemical, small-molecule microarray, 635/667 nm fluorescence, primary screen (AID 1148); details: higher = more signal;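 also: score merges 667nm spot fluorescence with signal-to-noise for antibody binding to printed compounds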
readout-label: composite z-score

| compound | recorded-measurement |
| --- | --- |
| COC(=O)c1c(CC[C@@H](CO)NC(=O)N[C@H](Cc2ccccc2)Cn2cc(-c3ccccn3)nn2)oc(C(C)=O)c1C(=O)OC | -0.105 |
| COc1ccccc1CN1C(=O)c2ccccc2[C@@]2(Cc3ccccc3N(CCCN(C)C)C2=O)[C@@H]1c1ccc(CO)cc1 | -0.19 |
| COc1cc(OC)c(C(O)C2C=CC3C(=O)NC(=O)C3N2Nc2ccccn2)cc1Br (centres undefined) | -0.0791 |
| COc1ccc(-c2cc3c(c(Cc4ccccc4)n2)[Si](C(C)C)(C(C)C)OC3)cn1 | -0.215 |

* * *

experiment: blockers of DNA damage checkpoint Chk1 activation – imaging, HeLa, hydroxyurea, phospho-Chk1 nuclear intensity, primary screen (AID 1187); settings: hydroxyurea-induced phospho-Chk1 immunofluorescence imaging, higher = more signal; also: test concentration not given here
readout-label: z-score

| molecule | recorded-measurement |
| --- | --- |
| O=C(CS)NCCCCCNC(=O)[C@@H]1C[C@@H]2C(=O)NCC(=O)N2[C@@H]1c1cccc(OCCO)c1 | 0.361 |
| OCCCC1=CC(C2CC2)N(Cc2cccc(OC(F)(F)F)c2)CC1 (configuration not stated) | 0.143 |
| COc1ccc(C#Cc2ccc3c(c2)[C@]2(C(=O)N3)[C@H](c3ccc(O)cc3)N3[C@H](c4ccccc4)[C@H](c4ccccc4)OC(=O)[C@H]3[C@@H]2C(=O)N2CCc3cc(OC)c(OC)cc3C2)cc1 | -0.187 |
| COCC(=C=CC[C@H](O)c1ccccc1OCCO)CCO | -0.186 |
| OCC1C=C(/C=C/c2ccccc2)CN1Cc1ccccc1Br (configuration not stated) | -0.283 |
| O=C1C2C=CC(C(O)C=Cc3ccc([N+](=O)[O-])cc3)N(n3cnnc3)C2C(=O)N1Cc1ccccc1 (configuration not stated) | -0.32 |
| CC(=O)Nc1cc(Br)ccc1C(=O)NCc1ccccc1 | 0.516 |
| [N-]=[N+]=Nc1ccccc1C[C@@]1(C(=O)N2CCCCC2)N=C(c2ccc(OCCCO)cc2)O[C@@H]1c1ccccc1N=[N+]=[N-] | -0.286 |
| CC(C)(C)OC(=O)CC[C@]1(C(=O)NCCN2CCOCC2)COC(c2ccc(OCCCO)cc2)=N1 | 0.0826 |
| O=C1O[C@@H](c2ccccc2)[C@@H](c2ccccc2)N2[C@@H](c3ccc(OCCO)cc3)[C@]3(C(=O)Nc4ccc(C#CCCO)cc43)[C@@H](C(=O)NC[C@H](O)c3ccccc3)[C@H]12 | -0.317 |
| O=C1NC(=O)C2C1C=CC(C(O)c1ccc(-c3ccccc3)s1)N2Nc1ccc(Cl)cc1Cl (configuration not stated) | 0.136 |
| CCN(CC)c1ccc(N2CC=CC34O[C@@H]5C=CCOC(=O)[C@@H]5[C@H]3C(=O)N(CCCCCCO)[C@@H]4C2=O)cc1 (some centres not stated) | 0.722 |
| [N-]=[N+]=NCc1ccccc1[C@@H]1OC(c2ccc(OCCCO)cc2)=N[C@]1(CCS(=O)(=O)c1ccccc1)C(=O)N1CCOCC1 | -0.137 |
| O=c1cccc(-c2ccccc2Cl)o1 | -0.26 |
| COc1ccc(C(=O)Nc2cccc(CN3C(=O)[C@]4(O[C@H](CCn5cc(CCO)nn5)[C@@H]([Si](C)(C)c5ccc(OC)cc5)[C@@H]4C)c4ccccc43)c2)cc1 | -2.04 |
| COc1cc2c(cc1O)C(c1cccs1)N(Cc1cccc(OC(F)(F)F)c1)CC2 (configuration not stated) | -2.12 |
| COCCCNC(=O)[C@@H]1c2ccccc2C(=O)N(Cc2ccccc2OC)[C@H]1c1ccc(CO)cc1 | -0.576 |
